biological target: Cellular tumor antigen p53 (Homo sapiens); experiment: TOX21_p53_BLA_p2_ratio: Tox21 HCT-116 p53 Agonism Beta-lactamase Assay, Ratio, Phase 2 (AID 2283592)
Records with an inconclusive call do not appear. Activity calls are given as the source filed them. How the source made its calls: active means hit-call score of the fitted dose curve at least 0.9, where 1 is the maximum; inconclusive means response in the unintended direction; inactive means score below 0.9.
I would appreciate it if you answered using one of these outcomes: T = active, F = inactive

Exercise: # fetch the recorded call for CC1(COc2ccc(CC3SC(=O)NC3=O)cc2)CCCCC1 (stereo not drawn) here
Key: T

Exercise: # fetch the recorded call for "C[CH2][Ge]([Cl])([CH2]C)[CH2]C" here
Key: F

Exercise: # fetch the recorded call for "CCCCCCCCCCCCCCCCCC(=O)[O][Al]" here
Key: F

Exercise: # fetch the recorded call for Nc1c(Br)cc(Br)cc1CNC1CCC(O)CC1 (stereo not drawn) here
Key: F

Exercise: # fetch the recorded call for "O=c1[nH]cnc2nc[nH]c12" here
Key: F

Exercise: # fetch the recorded call for "CCCC1([C@H](O)C/C=C/[C@H]2[C@H](O)CC(=O)[C@@H]2CCCCCCC(=O)OC)CCC1" here
Key: F

Exercise: # fetch the recorded call for "Nc1ccc(S(=O)(=O)Nc2ccccn2)cc1" here
Key: F

Exercise: # fetch the recorded call for "NCCS(=O)(=O)O" here
Key: F

Exercise: # fetch the recorded call for "CCN(CC)CCOc1ccc(-c2nc3cc(Cl)ccc3s2)cc1" here
Key: F

Exercise: # fetch the recorded call for "COc1cc2c(cc1OC)-c1cc(=Nc3c(C)cc(C)cc3C)n(C)c(=O)n1CC2" here
Key: T

Exercise: # fetch the recorded call for "CCSc1ccc2c(c1)N(CCCN1CCN(C)CC1)c1ccccc1S2" here
Key: F

Exercise: # fetch the recorded call for OC[C@H]1O[C@@H](O[C@H]2[C@H](O)[C@@H](O)C(O)O[C@@H]2CO)[C@H](O)[C@@H](O)[C@@H]1O (stereo partly drawn) here
Key: F

Exercise: # fetch the recorded call for "CCCOC(=O)c1ccccc1" here
Key: F

----------
Biological target: Cellular tumor antigen p53 (Homo sapiens)
Assay: TOX21_p53_BLA_p5_ratio: Tox21 HCT-116 p53 Agonism Beta-lactamase Assay, Ratio, Phase 5 (AID 2283599)
Procedure: TOX21_p53_BLA_p5 is a cell-based, single-readout assay that uses HCT116, a human intestinal cell line, […] in a 1536-well plate.TOX21_p53_BLA_p5_ratio is an assay readout measuring reporter gene via receptor activity and designed using inducible reporter (beta lactamase induction) detected with GAL4 b-lactamase reporter gene. […] This assay endpoint, TOX21_p53_BLA_p5_ratio, was analyzed in the positive analysis fitting direction relative to DMSO as the negative control and baseline of activity. […]
Results filed as inconclusive are left out. Activity calls are given as the source filed them. The calls were made as follows: active = hit-call score of the fitted dose curve at least 0.9, where 1 is the maximum; inconclusive = response in the unintended direction; inactive = score below 0.9.
I would appreciate it if you answered using one of these outcomes: class 1 = active, class 0 = inactive

Exercise: # fetch the recorded call for "CCOC(=O)c1cc(-c2ccccc2)nc2ccc(C)cc12" here
Key: class 0

Exercise: # fetch the recorded call for CSCCC(N)C(=O)O (configuration not stated) here
Key: class 0

Exercise: # fetch the recorded call for "NC12CC3CC(CC(C3)C1)C2" here
Key: class 0

Exercise: # fetch the recorded call for "OCCN1CCN(CCCN2c3ccccc3Sc3ccc(Cl)cc32)CC1" here
Key: class 0

Exercise: # fetch the recorded call for "CCc1cc(Cl)c(OC)c(C(=O)NC[C@@H]2CCCN2CC)c1O" here
Key: class 0

Exercise: # fetch the recorded call for "CO/N=C(\C(=O)N[C@@H]1C(=O)N2C(C(=O)O)=C(CSc3cnns3)CS[C@H]12)c1csc(N)n1" here
Key: class 0

Exercise: # fetch the recorded call for "CCCCCCCCCOC(=O)c1ccc(O)cc1" here
Key: class 0

Exercise: # fetch the recorded call for "CCCCCCCCCCCCCCCCCCOCCO" here
Key: class 0

Exercise: # fetch the recorded call for "Cc1cc(Nc2ccccc2C(=O)O)ccc1Cl" here
Key: class 1

Exercise: # fetch the recorded call for "CC(C)(Oc1ccc(Cl)cc1)C(=O)O" here
Key: class 0

Exercise: # fetch the recorded call for "COC(C)(OC)OC" here
Key: class 0

Exercise: # fetch the recorded call for "COC[C@H](c1ccc(C(F)(F)F)cc1)N1CCN(C2(C)CCN(C(=O)c3c(C)ncnc3C)CC2)C[C@H]1C" here
Key: class 0

Exercise: # fetch the recorded call for CC(=C(CCO)SSCC1CCCO1)N(C=O)Cc1cnc(C)nc1N (configuration not stated) here
Key: class 0

Exercise: # fetch the recorded call for "O=Cc1c(Cl)cccc1Cl" here
Key: class 0

Exercise: # fetch the recorded call for "CCCC(=O)O[C@]1(C(=O)CCl)[C@@H](C)C[C@H]2[C@@H]3CCC4=CC(=O)C=C[C@]4(C)[C@@]3(F)C(=O)C[C@@]21C" here
Key: class 0

Exercise: # fetch the recorded call for "Cc1ccc(NC(=O)N(C)C)cc1NC(=O)N(C)C" here
Key: class 0

Exercise: # fetch the recorded call for CC1(CN2CCC(n3c(=O)[nH]c4ccccc43)CC2)OCc2ccccc2-n2cccc21 (configuration not stated) here
Key: class 0

Exercise: # fetch the recorded call for COc1ccccc1OCC(O)COC(N)=O (configuration not stated) here
Key: class 0

Exercise: # fetch the recorded call for "NS(=O)(=O)c1cc2c(cc1C(F)(F)F)NCNS2(=O)=O" here
Key: class 0

Exercise: # fetch the recorded call for CC(C)(c1cc(Br)c(OCC(Br)CBr)c(Br)c1)c1cc(Br)c(OCC(Br)CBr)c(Br)c1 (configuration not stated) here
Key: class 0

Exercise: # fetch the recorded call for "O=[N+]([O-])c1ccc(F)cc1F" here
Key: class 0

Exercise: # fetch the recorded call for CC(C)(C)OCC1CO1 (configuration not stated) here
Key: class 0

Exercise: # fetch the recorded call for "COC(=O)[C@H]1[C@H]2C[C@@H]3c4[nH]c5ccccc5c4CCN3C[C@H]2C[C@@H](OC(=O)c2cc(OC)c(OC)c(OC)c2)[C@@H]1OC" here
Key: class 0

Exercise: # fetch the recorded call for "Nc1ccccc1S(=O)(=O)c1ccccc1" here
Key: class 0

Exercise: # fetch the recorded call for "ClCC=CCCl" here
Key: class 0

Exercise: # fetch the recorded call for "CC(C)(C(=O)c1cccnc1)c1cccnc1" here
Key: class 0

Exercise: # fetch the recorded call for Cc1cccc(C)c1NC(=O)C1CCCCN1C (configuration not stated) here
Key: class 0

Exercise: # fetch the recorded call for CCCOC(=O)C(C)O (configuration not stated) here
Key: class 0

Exercise: # fetch the recorded call for "C[N+](C)(C)CCOC(=O)CCC(=O)OCC[N+](C)(C)C" here
Key: class 0

Exercise: # fetch the recorded call for CC1CC(C)C(=O)C1=O (configuration not stated) here
Key: class 0

Exercise: # fetch the recorded call for "Cc1c(I)c(=O)n(-c2ccccc2)n1C" here
Key: class 0

Exercise: # fetch the recorded call for "CC(C)(C)OC(=O)N1C[C@@H](F)C[C@H]1C(=O)O" here
Key: class 0

Exercise: # fetch the recorded call for "N/C(=N\N=Cc1ccc(Cl)cc1)NN=Cc1ccc(Cl)cc1" here
Key: class 0

Exercise: # fetch the recorded call for "CN(C)CCCN1c2ccccc2Sc2ccc(C(F)(F)F)cc21" here
Key: class 0

Exercise: # fetch the recorded call for "O=[N+]([O-])c1cc(C2CCCCC2)c(O)c([N+](=O)[O-])c1" here
Key: class 0

Exercise: # fetch the recorded call for C=COCC1CCC(CO)CC1 (configuration not stated) here
Key: class 0

Exercise: # fetch the recorded call for "O=P(O)(O)C(Sc1ccc(Cl)cc1)P(=O)(O)O" here
Key: class 0

----------
target: Cellular tumor antigen p53 (Homo sapiens) (UniProt P04637); assay: TOX21_p53_BLA_p3_ratio: Tox21 HCT-116 p53 Agonism Beta-lactamase Assay, Ratio, Phase 3 (AID 2283596)
Sequence (P04637 whole entry, looked up): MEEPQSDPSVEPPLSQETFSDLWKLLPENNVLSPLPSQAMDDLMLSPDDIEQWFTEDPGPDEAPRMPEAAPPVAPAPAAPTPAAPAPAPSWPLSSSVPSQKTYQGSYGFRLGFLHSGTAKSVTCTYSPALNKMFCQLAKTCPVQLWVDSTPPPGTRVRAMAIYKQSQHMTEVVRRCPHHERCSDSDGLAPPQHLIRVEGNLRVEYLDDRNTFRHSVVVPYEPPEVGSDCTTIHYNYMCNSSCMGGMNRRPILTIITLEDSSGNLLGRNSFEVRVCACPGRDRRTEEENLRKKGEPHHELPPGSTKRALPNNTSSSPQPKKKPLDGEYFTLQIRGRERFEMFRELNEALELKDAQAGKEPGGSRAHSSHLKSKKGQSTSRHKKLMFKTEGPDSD
Records with an inconclusive call do not appear. Activity calls are given as the source filed them. Rule for the calls: active = hit-call score of the fitted dose curve at least 0.9, where 1 is the maximum; inconclusive = response in the unintended direction; inactive = score below 0.9.
I would appreciate it if you answered using one of these outcomes: yes (1) = active, no (0) = inactive

Exercise: # fetch the recorded call for CCOc1nc2cccc(C(=O)OC(C)OC(=O)OC3CCCCC3)c2n1Cc1ccc(-c2ccccc2-c2nn[nH]n2)cc1 (centres undefined) here
Key: yes (1)

Exercise: # fetch the recorded call for "O=C=Nc1cccc(C(F)(F)F)c1" here
Key: no (0)

Exercise: # fetch the recorded call for "CCOc1ccccc1C(N)=O" here
Key: no (0)

Exercise: # fetch the recorded call for "CO[C@H]1C[C@H](O[C@@H]2/C(C)=C/C[C@@H]3C[C@@H](C[C@]4(CC[C@H](C)[C@@H](C5CCCCC5)O4)O3)OC(=O)[C@@H]3C=C(C)/C(=N/O)[C@H]4OC/C(=C\C=C\[C@@H]2C)[C@]43O)O[C@@H](C)[C@@H]1O" here
Key: no (0)

Exercise: # fetch the recorded call for "C=C1CC[C@H](O)C/C1=C/C=C1\CCC[C@]2(C)[C@@H]([C@H](C)CCCC(C)C)CC[C@@H]12" here
Key: no (0)

Exercise: # fetch the recorded call for "COCCOCCOCCOCCO" here
Key: no (0)

Exercise: # fetch the recorded call for "O=C(O)CCCc1ccccc1" here
Key: no (0)

Exercise: # fetch the recorded call for "O=C(NC1CCN(CCc2c[nH]c3ccccc23)CC1)c1ccccc1" here
Key: no (0)

Exercise: # fetch the recorded call for "Cc1cc(O)c(C(C)(C)C)cc1Sc1cc(C(C)(C)C)c(O)cc1C" here
Key: yes (1)

Exercise: # fetch the recorded call for "CC1=NS(=O)(=O)c2cc(Cl)ccc2N1" here
Key: no (0)

Exercise: # fetch the recorded call for "CCCCCCCCCCOc1cc2c(=O)c(C(=O)OCC)c[nH]c2cc1OCC" here
Key: no (0)

Exercise: # fetch the recorded call for "COc1cc(C)c(/C=C/C(C)=C/C=C/C(C)=C/C(=O)O)c(C)c1C" here
Key: no (0)

Exercise: # fetch the recorded call for "NC(=O)c1ccc([N+](=O)[O-])cc1" here
Key: no (0)

Exercise: # fetch the recorded call for "CC(=O)CC(C)=O" here
Key: no (0)

Ref: PubChem BioAssay (EPA / NIEHS)
